Kindly state INHIBITION for each of the entries shown.
- Test system: Plasmodium berghei
- assayInfo: Screen against P. berghei liver stage (PbLuc), transformed with Luciferase, at 10uM
- Assay type: functional, HepG2
- testParameters: tested at 10 uM
The campaign covered roughly 69,000 compounds. About 8,600 (12%) showed an effect of 50% or more. The entries come from a sample that favours strong results as a whole.
State the answer as a number, implicitly in %.

*Q* So what does the record say about INHIBITION for COc1cc(OC)cc(C(=O)NCCCNc2ncccn2)c1 ?
*A* -14.1

*Q* So what does the record say about INHIBITION for CN1C[C@H]2CNC[C@@]2(C(=O)NC2CCN(c3ncccc3C#N)CC2)C1 ?
*A* 36.6

*Q* So what does the record say about INHIBITION for Cc1csc(N2CCCN(C(=O)c3c(C)noc3C)CC2)n1 ?
*A* -19.6

*Q* So what does the record say about INHIBITION for CCOCc1nc2c(c(NC(CC)c3cccnc3)n1)CCNCC2 (centres undefined) ?
*A* 53.5

----------
- Tested on: Plasmodium berghei
- assayInfo: Screen against P. berghei liver stage (PbLuc), transformed with Luciferase, at 10uM
- Assay type: functional, HepG2
- testParameters: tested at 10 uM
Out of some 69,000 compounds screened, about 8,600 (12%) showed an effect of 50% or more. For the sample, strong results were picked, then their nearest neighbours and some compounds at random.
measureName: INHIBITION (%)
State the answer as a number, implicitly in %.

*Q* So what does the record say about INHIBITION for COc1cccc([C@@H]2CCN(Cc3cccc(C)n3)C[C@H]2O)c1 ?
*A* -3.83

*Q* So what does the record say about INHIBITION for CC(OCC(F)(F)F)C(=O)N1CCCC1 (stereo not drawn) ?
*A* -1.37

*Q* So what does the record say about INHIBITION for CN1CCCCC1c1ncc2c(n1)CCN(Cc1ccc(F)cc1)C2 (stereo not drawn) ?
*A* 24.4

----------
- Tested on: Plasmodium berghei
- assayInfo: Screen against P. berghei liver stage (PbLuc), transformed with Luciferase, at 10uM
- Type: functional, HepG2
- testParameters: tested at 10 uM
Among all 69,000 compounds or so, about 8,600 (12%) showed an effect of 50% or more. This excerpt belongs to a sample that is enriched for strong results.
Class Condition met: INHIBITION at least -10%. Class Condition not met: INHIBITION below -10%.

*Q* API: above_or_equal(metric=INHIBITION, cutoff=-10%) for item CC1CCN(CC(=O)NC2CCN(C(C)c3ccccc3)CC2)CC1 (stereo unspecified)
*A* Condition met

*Q* API: above_or_equal(metric=INHIBITION, cutoff=-10%) for item Cn1ncc2c(NCCC34CCCN3CCC4)nc(C3CCCC3)nc21
*A* Condition not met

*Q* API: above_or_equal(metric=INHIBITION, cutoff=-10%) for item COc1ccc2cc(C(=O)NCCNc3ccc(C)nn3)[nH]c2c1
*A* Condition not met

*Q* API: above_or_equal(metric=INHIBITION, cutoff=-10%) for item Cn1cnc2c1CCN(CC(O)c1ccc(S(C)(=O)=O)cc1)C2 (stereo unspecified)
*A* Condition met

*Q* API: above_or_equal(metric=INHIBITION, cutoff=-10%) for item Cc1ccccc1C1(C(=O)NCCN(C(C)C)C(C)C)CCOCC1
*A* Condition not met

*Q* API: above_or_equal(metric=INHIBITION, cutoff=-10%) for item Cn1ncc2c(NCCCOc3cccnc3)nc(C3CCCC3)nc21
*A* Condition met
